test system: HL-60(TB) leukemia; assay: NCI-60 one-dose screen, 48 h; settings: 10 µM unless noted
This is part of a sample that, as a whole, favours compounds with a hit. Of some 83,000 tested, about 20% had one in any assay. Calls of active or inactive are those of the source. The calls were made as follows: active = growth percent below 10; inactive = the rest.
Outcomes: yes for active, no for inactive

>>> labelclass("O=C1c2cccc3cccc(c23)C(=O)N1CCCCCN1CCN(CCCCCOc2ccc(-c3nc4ccc(N5CCOCC5)cc4[nH]3)cc2)CC1")
"yes"
>>> labelclass("COc1ccc(C2OC(c3cc(-c4cc5ccccc5o4)nn3-c3ccccc3)=NN2C(C)=O)cc1 (centres undefined)")
"no"
>>> labelclass("C[C@@]1(CCC#N)[C@H]2CC[C@@H]3[C@H]4[C@H](C(=O)/C=C/c5cccnc5)CC[C@]4(C#N)CC[C@@]3(C)[C@]2(C)CC[C@H]1C(=O)/C=C/c1cccnc1")
"no"
>>> labelclass("CC(C)(C)c1ccc(NS(=O)(=O)c2ccc3nc(NC(=O)c4cnccn4)[nH]c3c2)cc1")
"yes"
